# credit: patent US9593109B2

experimentalSystem: human GPR131 (Homo sapiens)
Construct: expressed in transfected cells
Sequence (Q8TDU6 whole entry): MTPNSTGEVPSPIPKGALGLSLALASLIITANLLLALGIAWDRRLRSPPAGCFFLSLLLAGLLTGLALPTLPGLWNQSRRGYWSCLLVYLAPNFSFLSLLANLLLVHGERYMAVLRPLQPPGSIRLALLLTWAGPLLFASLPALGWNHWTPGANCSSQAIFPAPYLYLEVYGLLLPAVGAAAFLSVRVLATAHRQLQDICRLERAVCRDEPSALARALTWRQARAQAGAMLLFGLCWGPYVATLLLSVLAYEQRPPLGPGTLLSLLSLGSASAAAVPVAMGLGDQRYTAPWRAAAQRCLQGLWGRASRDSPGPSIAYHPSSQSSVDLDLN
test: Stimulation of cAMP (agonism of GPR131), FRET cAMP assay
Type: cell-based
experimentalParameters: 0.5 h; 1.1 μM compound; compared to maximal stimulatory activity of lithocholic acid (LCA) determined at 3.3 μM; stable cell line expressing human GPR131; 37° C. for 30 minutes; read-out: Percent Activity @ 1.1 μM (of 3.3 uM LCA) (%)
Experimental: This assay was developed using a stable cell line expressing human GPR131. To measure cAMP activity in response to GPR131 agonists, GPR131 cells suspended in DMEM/F12 medium with 1 mM IBMX were seeded in 384 well plates at 5000 cells per well. After incubating with test compounds at 37° C. for 30 minutes cAMP was measured using a fluorescene resonance energy transfer cAMP kit from Cis Bio (Bedford, Mass.) according to the manufacturer's instructions. […]
experimentalReadout: activation at 1.1 µM

# substanceSmiles, experimentalReadout, reportedResult
records = [
    ("S=c1[nH]nc(-c2c(-c3cc(Cl)ccc3Cl)nc3ccccn23)n1-c1ccc(Cl)cc1", "activation at 1.1 µM", "98.9%"),
    ("Clc1ccc(-n2cncc2-c2c(-c3cc(Cl)ccc3Cl)nc3ccccn23)cc1", "activation at 1.1 µM", "100%"),
    ("Fc1cccc(-n2cnnc2-c2c(-c3cc(Cl)ccc3Cl)nc3ccccn23)c1", "activation at 1.1 µM", "99.6%"),
    ("Clc1ccc(-n2nnnc2-c2c(-c3ccccc3Cl)nc3ccccn23)cc1", "activation at 1.1 µM", "97.4%"),
]
